The reported measurements were obtained from patent US20240059693A1.

# Test system: VZV
# assay.method.text: Viral qPCR assay, VZV in MRC5 cells
# Type: cell-based, varicella zoster virus
# setup.conditions: Human alphaherpesvirus 3, MRC5, 72 h, read-out: VZV MRC5 Cell (IC50)
Exam item: assign Yes to entries whose IC50 is below 1000 nM and No to entries at or above 1000 nM. Note that a value of exactly 1000 nM receives No.

// known answers, use as guide
*Q* # TODO verify IC50 < 1000 nM strictly for this compound: "O=C1CC[C@H](CN2Cc3c(C(=O)NCc4ccc(Cl)cc4)nn(-c4ccccn4)c3C2)N1"
*A* Yes

*Q* I'd appreciate it if you could check whether "[2H]C([2H])([2H])n1nc(C(=O)NCc2ccc(Cl)cc2)c2c1CN(C[C@H]1CCC(=O)N1)C2" has IC50 smaller than 1000 nM.
*A* No

*Q* Given the entry "Cn1nc(C(=O)NCc2ccc(Cl)cc2)c2c1CN(C[C@@H]1CC(F)(F)C(=O)N1)C2" , would its reported IC50 be below 1000 nM?
*A* No

*Q* Check if IC50 falls below 1000 nM for "O=C1CC[C@@H](CN2Cc3c(C(=O)NCc4ccc(Cl)cc4)nn(-c4nccs4)c3C2)N1" .
*A* No

Others:
*Q* Lab log: compare recorded IC50 with 1000 nM; is it strictly lower for Cn1nc(C(=O)NCc2ccc(Cl)cc2)c2c1CN(CC13CC1CC(=O)N3)C2 (stereo not drawn) ?
*A* No

*Q* Is the reported IC50 for "O=C1CC[C@@H](CN2Cc3c(C(=O)NCc4ccc(Cl)cc4)nn(-c4ncccn4)c3C2)N1" strictly below 1000 nM?
*A* No

*Q* Hello, I'm reviewing records and need to know if IC50 of CC(C)CN1CC(n2nc(C(=O)NCc3ccc(Cl)cc3)c3c2CC(C[C@H]2CCC(=O)N2)C3)C1 (stereo partly drawn) is below 1000 nM. Could you check?
*A* Yes

*Q* Is IC50 strictly under 1000 nM for the entry "O=C1CC[C@H](CN2Cc3c(C(=O)NCc4ccc(Cl)cc4)nn(-c4nccs4)c3C2)N1" ?
*A* Yes

*Q* Quick check: IC50 of "Cc1cn(C)c(-n2nc(C(=O)NCc3ccc(Cl)cc3)c3c2CN(C[C@H]2CCC(=O)N2)C3)n1" under 1000 nM?
*A* Yes

*Q* Is IC50 of "CC(C)C(=O)NCCn1nc(C(=O)NCc2ccc(Cl)cc2)c2c1CN(C[C@H]1CCC(=O)N1)C2" strictly below 1000 nM?
*A* No

*Q* Just wondering, is IC50 of "O=C1N[C@@H](CN2Cc3c(C(=O)NCc4ccc(Cl)cc4)nn(C(F)F)c3C2)CO1" below 1000 nM?
*A* Yes

*Q* Please let me know if "Cc1cnc(-n2nc(C(=O)NCc3ccc(Cl)cc3)c3c2CN(C[C@H]2CCC(=O)N2)C3)s1" shows IC50 below 1000 nM.
*A* Yes

*Q* Find out if reported IC50 for Cn1nc(C(=O)NCc2ccc(Cl)cc2)c2c1CN(C[C@@H]1CC(F)C(=O)N1)C2 (stereo partly drawn) is less than 1000 nM
*A* No

*Q* Just wondering, is IC50 of O=C1CC[C@H](CC2Cc3c(C(=O)NCc4ccc(Cl)cc4)nn(CCN4CCOCC4)c3C2)N1 (stereo partly drawn) below 1000 nM?
*A* No

*Q* Please check: IC50 for CC(C1CC(F)C(=O)N1)N1Cc2c(C(=O)NCc3ccc(Cl)cc3)nn(C)c2C1 (single isomer, unassigned) , strictly under 1000 nM or not?
*A* Yes

*Q* Lab log: compare recorded IC50 with 1000 nM; is it strictly lower for "Cn1nc(C(=O)NCc2ccc(Cl)cc2)c2c1CN(C[C@H]1CCC(=O)N1)C2" ?
*A* Yes

*Q* Does this compound meet the criterion IC50 < 1000 nM? "O=C1CC[C@H](CN2Cc3c(C(=O)NCc4ccc(Cl)cc4)nn(-c4ncco4)c3C2)N1"
*A* Yes

*Q* Check if IC50 falls below 1000 nM for "O=C1CC[C@H](CN2Cc3c(C(=O)NCc4ccc(Cl)cc4)nn(CCn4ccc(Cl)n4)c3C2)N1" .
*A* Yes

*Q* Would you kindly verify if IC50 of "Cc1csc(-n2nc(C(=O)NCc3ccc(Cl)cc3)c3c2CN(C[C@H]2CCC(=O)N2)C3)n1" is strictly less than 1000 nM?
*A* Yes

*Q* For this compound, is IC50 lower than 1000 nM? "Cc1nc(-n2nc(C(=O)NCc3ccc(Cl)cc3)c3c2CN(C[C@H]2CCC(=O)N2)C3)sc1C"
*A* Yes

*Q* IC50 strictly < 1000 nM for this compound? "O=C1CC[C@H](CN2Cc3c(C(=O)NCc4ccc(Cl)cc4)nn(-c4ncc5ccccc5n4)c3C2)N1"
*A* Yes

*Q* Below 1000 nM on IC50? Entry "Cn1nc(C(=O)NCc2ccc(Cl)cc2)c2c1CN(C[C@@H]1CCC(=O)N1)C2"
*A* Yes

*Q* I wonder whether O=C1CC[C@@H](CN2Cc3c(C(=O)NCc4ccc(Cl)cc4)nn(C4CCOC4)c3C2)N1 (single isomer, unassigned) has IC50 below 1000 nM. Can you tell?
*A* No
